Reference source for all entries: paper PMC5564600

measured.on: panel of 442 kinases (Homo sapiens)
Construct: purchased Ambit Biosciences (scanMAXX KINOMEscan)
Sequence (P04049 whole entry): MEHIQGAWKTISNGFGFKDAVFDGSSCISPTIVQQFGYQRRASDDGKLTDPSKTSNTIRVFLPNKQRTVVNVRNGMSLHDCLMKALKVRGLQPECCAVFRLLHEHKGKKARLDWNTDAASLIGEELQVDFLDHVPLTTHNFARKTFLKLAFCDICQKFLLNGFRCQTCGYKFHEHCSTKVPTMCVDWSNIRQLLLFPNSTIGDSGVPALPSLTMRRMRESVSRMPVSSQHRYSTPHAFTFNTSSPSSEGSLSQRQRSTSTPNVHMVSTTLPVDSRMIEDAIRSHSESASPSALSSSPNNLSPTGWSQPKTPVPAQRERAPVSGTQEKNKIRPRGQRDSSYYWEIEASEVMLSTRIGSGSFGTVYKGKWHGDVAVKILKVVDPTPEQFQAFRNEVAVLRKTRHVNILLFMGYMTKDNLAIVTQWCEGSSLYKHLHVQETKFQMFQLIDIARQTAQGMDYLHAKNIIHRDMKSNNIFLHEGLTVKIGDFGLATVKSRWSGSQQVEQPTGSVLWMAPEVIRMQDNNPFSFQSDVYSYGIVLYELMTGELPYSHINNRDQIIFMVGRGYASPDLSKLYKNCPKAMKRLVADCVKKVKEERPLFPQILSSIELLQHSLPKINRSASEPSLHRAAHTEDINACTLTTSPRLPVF
assay.info: biochemical
Format: binding
experimental.parameters: kinase RAF1; 1 µM; read-out: RAF1 (% of control at 1 µM)
experimental.readout: remaining activity at 1 µM

INPUT: Tell me measured remaining activity at 1 µM for Cn1c(=O)n(-c2ccc(C(C)(C)C#N)cc2)c2c3cc(-c4cnc5ccccc5c4)ccc3ncc21 please.
OUTPUT: 94%

INPUT: Tell me measured remaining activity at 1 µM for FC(F)c1nc2ccccc2n1-c1nc(N2CCOCC2)nc(N2CCOCC2)n1 please.
OUTPUT: 73%

INPUT: Tell me measured remaining activity at 1 µM for COc1ncc(-c2ccc3nccc(-c4ccnnc4)c3c2)cc1NS(=O)(=O)c1ccc(F)cc1F please.
OUTPUT: 100%

INPUT: Tell me measured remaining activity at 1 µM for Nc1cc(C(F)(F)F)c(-c2cc(N3CCOCC3)nc(N3CCOCC3)n2)cn1 please.
OUTPUT: 100%
